Target: ternary complex between BCL-XL and CRBN-DDB1 (Homo sapiens, UniProt Q07817+Q96SW2)
Sequence (Q07817 whole entry): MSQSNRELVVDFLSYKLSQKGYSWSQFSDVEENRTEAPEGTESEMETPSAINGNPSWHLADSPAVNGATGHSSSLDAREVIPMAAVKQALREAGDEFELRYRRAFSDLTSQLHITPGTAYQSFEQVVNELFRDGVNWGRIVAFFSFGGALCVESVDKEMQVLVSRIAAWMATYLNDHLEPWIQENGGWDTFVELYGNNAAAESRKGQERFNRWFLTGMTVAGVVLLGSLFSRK
Sequence (Q96SW2 whole entry): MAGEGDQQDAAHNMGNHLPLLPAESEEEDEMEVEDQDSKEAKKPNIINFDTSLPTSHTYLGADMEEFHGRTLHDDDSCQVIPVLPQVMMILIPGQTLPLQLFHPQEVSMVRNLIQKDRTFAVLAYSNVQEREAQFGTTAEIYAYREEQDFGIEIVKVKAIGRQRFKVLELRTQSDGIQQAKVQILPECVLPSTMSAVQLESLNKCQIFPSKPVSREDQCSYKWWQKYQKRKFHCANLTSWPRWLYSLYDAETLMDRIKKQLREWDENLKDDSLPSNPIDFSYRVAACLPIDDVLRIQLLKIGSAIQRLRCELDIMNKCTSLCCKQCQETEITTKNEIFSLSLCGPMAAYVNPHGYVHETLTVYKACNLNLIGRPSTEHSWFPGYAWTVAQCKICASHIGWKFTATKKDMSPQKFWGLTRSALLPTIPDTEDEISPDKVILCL
Sequence (Q16531 whole entry partner): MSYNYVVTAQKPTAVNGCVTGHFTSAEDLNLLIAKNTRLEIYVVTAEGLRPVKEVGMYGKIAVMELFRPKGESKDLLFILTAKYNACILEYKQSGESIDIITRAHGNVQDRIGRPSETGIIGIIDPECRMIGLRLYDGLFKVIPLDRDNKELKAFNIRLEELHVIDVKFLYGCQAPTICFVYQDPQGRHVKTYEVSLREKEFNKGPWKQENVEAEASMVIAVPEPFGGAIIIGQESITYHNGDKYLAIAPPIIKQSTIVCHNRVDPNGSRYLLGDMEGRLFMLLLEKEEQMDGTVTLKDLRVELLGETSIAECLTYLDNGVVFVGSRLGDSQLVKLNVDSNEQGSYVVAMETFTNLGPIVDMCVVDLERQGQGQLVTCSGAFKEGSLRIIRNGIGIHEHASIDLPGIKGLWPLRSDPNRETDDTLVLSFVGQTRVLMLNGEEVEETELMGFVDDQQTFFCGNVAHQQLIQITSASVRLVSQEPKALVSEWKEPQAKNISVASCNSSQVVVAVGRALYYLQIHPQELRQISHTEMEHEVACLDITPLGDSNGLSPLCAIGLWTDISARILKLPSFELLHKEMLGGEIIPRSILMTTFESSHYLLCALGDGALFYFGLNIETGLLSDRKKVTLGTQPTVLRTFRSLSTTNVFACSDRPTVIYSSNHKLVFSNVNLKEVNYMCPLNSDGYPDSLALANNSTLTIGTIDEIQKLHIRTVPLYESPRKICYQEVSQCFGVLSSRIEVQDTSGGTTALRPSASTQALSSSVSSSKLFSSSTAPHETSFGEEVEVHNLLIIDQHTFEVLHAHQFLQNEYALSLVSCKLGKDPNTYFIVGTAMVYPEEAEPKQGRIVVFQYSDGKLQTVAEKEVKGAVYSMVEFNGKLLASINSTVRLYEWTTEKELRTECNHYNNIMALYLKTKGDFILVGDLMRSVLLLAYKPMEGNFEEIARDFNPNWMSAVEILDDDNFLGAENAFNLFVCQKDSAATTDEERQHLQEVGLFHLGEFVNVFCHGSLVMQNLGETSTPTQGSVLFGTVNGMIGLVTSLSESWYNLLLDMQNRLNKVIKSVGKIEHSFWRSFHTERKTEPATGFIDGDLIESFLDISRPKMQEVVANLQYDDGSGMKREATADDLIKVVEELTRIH
Experiment: Compound-induced formation of ternary complex between BCL-XL and CRBN-DDB1 by AlphaLISA
Format: biochemical
Set-up: key: the number of + indicates the intensity of AlphaLISA peak signal; ++: the number of + indicates the intensity of AlphaLISA peak signal; +++: the number of + indicates the intensity of AlphaLISA peak signal; ++++: the number of + indicates the intensity of AlphaLISA peak signal; +++++: the number of + indicates the intensity of AlphaLISA peak signal
Settings: peak signal; 60 nM Strep-BCL-XL and 60 nM His-CRBN/DDB1
Value Kind: AlphaLISA signal (PROTAC ternary complex signal intensity)

Field: example entries. Status: answers known.
[
  {
    "Molecule": "CNc1nc(-c2cnc3ccccc3c2)nc2c1CCN(C(=O)c1ccc(/C=C/c3ccc(C#CCN4CCN(CCCCCC(=O)N[C@H](C(=O)N5C[C@H](O)C[C@H]5C(=O)NCc5ccc(-c6scnc6C)cc5)C(C)(C)C)CC4)cc3)cc1)C2",
    "Target": "ternary complex between BCL-XL and CRBN-DDB1 (Homo sapiens, UniProt Q07817+Q96SW2)",
    "Reported": "++"
  },
  {
    "Molecule": "C/C=c1/cc(-c2nc3c(c(NC)n2)CCN(C(=O)c2ccc(COc4ccc(C#CCN(C)CCCCCOc5cccc6c5C(=O)N(C5CCC(=O)NC5=O)C6=O)cc4)cc2)C3)cn/c1=C/C (centres unmarked)",
    "Target": "ternary complex between BCL-XL and CRBN-DDB1 (Homo sapiens, UniProt Q07817+Q96SW2)",
    "Reported": "+"
  },
  {
    "Molecule": "C=Cc1cc(-c2nc3c(c(NC)n2)CCN(C(=O)c2ccc(COc4ccc(C#CCN5CCN(CCCCCCCCNc6cccc7c6C(=O)N(C6CCC(=O)NC6=O)C7=O)CC5)cc4)cc2)C3)cnc1C=C (centres unmarked)",
    "Target": "ternary complex between BCL-XL and CRBN-DDB1 (Homo sapiens, UniProt Q07817+Q96SW2)",
    "Reported": "+++"
  },
  {
    "Molecule": "C=Cc1cc(-c2nc3c(c(NC)n2)CCN(C(=O)c2ccc(COc4ccc(C#CCN5CCN(CCCCOc6cccc7c6C(=O)N(C6CCC(=O)NC6=O)C7=O)CC5)cc4)cc2)C3)cnc1C=C (centres unmarked)",
    "Target": "ternary complex between BCL-XL and CRBN-DDB1 (Homo sapiens, UniProt Q07817+Q96SW2)",
    "Reported": "+"
  }
]

Note: attention shifts to another entry.
In: Entry under review: CNc1nc(-c2cnc3ccccc3c2)nc2c1CCN(C(=O)c1ccc(/C=C/c3ccc(C#CCN4CCN(C(=O)CCC(=O)N[C@H](C(=O)N5C[C@H](O)C[C@H]5C(=O)N[C@@H](C)c5ccc(-c6scnc6C)cc5)C(C)(C)C)CC4)cc3)cc1)C2 . Reported AlphaLISA signal (PROTAC ternary complex signal intensity)?
Out: +

----------
Tested on: MOLT-4 cells
Experiment: Inhibitory activity on MOLT4 cell proliferation by Cell Titer-Glo method
Format: cell-based
Conditions: Homo sapiens, 72 hours incubation, read-out: IC50 concentration for inhibiting MOLT-4 cells
pIC50: −log10 of the molar value.
Value Kind: pIC50

[
  {
    "Compound": "O=C1CCC(N2Cc3c(CCCN4CC(N5CCN(CC#Cc6ccc(/C=C/c7ccc(C(=O)N8CCc9cnc(-c%10cnc%11ccccc%11c%10)nc9C8)cc7)cc6)CC5)C4)cccc3C2=O)C(=O)N1 (stereo not drawn)",
    "Target": "MOLT-4 cells",
    "Reported": "< 3.70"
  },
  {
    "Compound": "CNc1nc(-c2cnc3ccccc3c2)nc2c1CCN(C(=O)c1ccc(/C=C/c3ccc(C#CCN4CCN(CCC#Cc5cccc(C6CCC(=O)NC6=O)c5)CC4)cc3)cc1)C2 (stereo not drawn) [Compound D2-15]",
    "Target": "MOLT-4 cells",
    "Reported": "> 6.00"
  },
  {
    "Compound": "CNc1nc(-c2cnc3ccccc3c2)nc2c1CCN(C(=O)c1ccc(/C=C/c3ccc(C#CCN4CCN(CC5CCN(c6ccc7c(c6)C(=O)N(C6CCC(=O)NC6=O)C7=O)CC5)CC4)cc3)cc1)C2 (stereo not drawn)",
    "Target": "MOLT-4 cells",
    "Reported": "4.00 to 4.30"
  },
  {
    "Compound": "O=C1CCC(N2Cc3c(CN4CC5(C4)CN(C4CCN(CC#Cc6ccc(/C=C/c7ccc(C(=O)N8CCc9cnc(-c%10cnc%11ccccc%11c%10)nc9C8)cc7)cc6)CC4)C5)cccc3C2=O)C(=O)N1 (stereo not drawn)",
    "Target": "MOLT-4 cells",
    "Reported": "5.00 to 6.00"
  },
  {
    "Compound": "C/C=c1/cc(-c2nc3c(c(NC)n2)CCN(C(=O)c2ccc(/C=C/c4ccc(C#CCN5CCN(CCCCCOc6cccc7c6CN(C6CCC(=O)NC6=O)C7=O)CC5)cc4)cc2)C3)cn/c1=C/C (stereo not drawn)",
    "Target": "MOLT-4 cells",
    "Reported": "3.70 to 4.00"
  },
  {
    "Compound": "O=C1CCC(N2Cc3c(CN4CC5(CC(N6CCN(CC#Cc7ccc(/C=C/c8ccc(C(=O)N9CCc%10cnc(-c%11cnc%12ccccc%12c%11)nc%10C9)cc8)cc7)CC6)C5)C4)cccc3C2=O)C(=O)N1 (stereo not drawn)",
    "Target": "MOLT-4 cells",
    "Reported": "3.70 to 4.00"
  },
  {
    "Compound": "O=C1CCC(N2Cc3cc(N4CCC(N5CCN(CC#Cc6ccc(OCC78CC(C(=O)N9CCc%10cnc(-c%11cnc%12ccccc%12c%11)nc%10C9)(C7)C8)cc6)CC5)CC4)ccc3C2=O)C(=O)N1 (stereo not drawn)",
    "Target": "MOLT-4 cells",
    "Reported": "5.00 to 6.00"
  },
  {
    "Compound": "C=Cc1cc(-c2nc3c(c(NC)n2)CCN(C(=O)c2ccc(COc4ccc(C#CCN5CCN(CCCCNc6cccc7c6C(=O)N(C6CCC(=O)NC6=O)C7=O)CC5)cc4)cc2)C3)cnc1C=C (stereo not drawn)",
    "Target": "MOLT-4 cells",
    "Reported": "4.00 to 4.30"
  }
]

Now let's try a different one.
In: Quick one: pIC50 for O=C1CCC(N2Cc3cc(N4CCC(CN5CCN(CC#Cc6ccc(OCC78CC(C(=O)N9CCc%10cnc(-c%11cnc%12ccccc%12c%11)nc%10C9)(C7)C8)cc6)CC5)CC4)ccc3C2=O)C(=O)N1 (stereo not drawn) ?
Out: 4.00 to 4.30

These measurements were taken from patent US20250136593A1.
